target: STK33 (human); assay: KINOMEscan competition binding; conditions: compound 10.0 µM
readout-label: kinase still bound, per cent of control (%)

> print(dat)
                    structure.smiles.string                            readout.label  test.result
1  CCOc1cc(N2CCC(O)CC2)ccc1Nc1ncc2c(n1)N(C)c1ccccc1C(=O)N2C  kinase still bound, per cent of control          100
2  CCN(CCO)CCCOc1ccc2c(Nc3cc(CC(=O)Nc4cccc(F)c4)[nH]n3)ncnc2c1  kinase still bound, per cent of control           51
3  COc1ccc(N(C(=O)Oc2cc(C(=O)Nc3cccc(C(F)(F)F)c3)ccc2C)c2ccnc(Nc3ccc(N4CCN(C)CC4)cc3)n2)c(OC)c1  kinase still bound, per cent of control          100
4  N#Cc1cc(-c2ccnc(Nc3ccc(-n4cnc(-c5cccnc5)n4)cc3)n2)cc(N2CCOCC2)c1  kinase still bound, per cent of control           88
5  Cc1cn(-c2cc(C(=O)Nc3ccc(C)c(NC(=O)c4ccno4)c3)cc(C(F)(F)F)c2)cn1  kinase still bound, per cent of control          100

###

target: MAP4K2 (human); assay: KINOMEscan competition binding; conditions: compound 10.0 µM
Field: label. Allowed values: Satisfied (kinase still bound, per cent of control < 70%) or Not satisfied (kinase still bound, per cent of control >= 70%).

> print(dat)
                                    compound            cat
 1  COc1cc(N2CCC(C(N)=O)CC2)ccc1Nc1nc(N)c(Cl)c(Nc2ccccc2S(=O)(=O)C(C)C)n1  Not satisfied
 2  CNC(=O)Nc1ccc(-c2nc(N3CC4CCC(C3)O4)c3cnn(C4CCC5(CC4)OCCO5)c3n2)cc1  Not satisfied
 3  COc1cc(C)c(Sc2cnc(NC(=O)c3ccc(CNC(C)C(C)C)cc3)s2)cc1C(=O)N1CCN(C(C)=O)CC1 (configuration not stated)  Not satisfied
 4  CCc1nc(-c2cccc(C)c2)c(-c2ccnc(NC(=O)c3ccccc3)c2)s1  Not satisfied
 5  CCCS(=O)(=O)Nc1ccc(F)c(C(=O)c2c[nH]c3ncc(Cl)cc23)c1F  Not satisfied
 6  CC(=O)c1c(C)c2cnc(Nc3ccc(N4CCNCC4)cn3)nc2n(C2CCCC2)c1=O      Satisfied
 7  N#C/C(=C1/Nc2ccccc2S1)c1ccnc(NCCc2cccnc2)n1      Satisfied
 8  C=CC(=O)Nc1ccc(C(=O)c2sc(Nc3ccc(N4CCN(C)CC4)cc3OC)nc2N)cc1      Satisfied
 9  CC1=C(C(=O)Nc2cc3cn[nH]c3cc2F)C(c2ccc(C(F)(F)F)cc2)CC(=O)N1 (configuration not stated)  Not satisfied
10  CCN1CCN(Cc2ccc(NC(=O)c3ccc(C)c(/C=C/c4cnc5[nH]ccc5c4OC)c3)cc2C(F)(F)F)CC1      Satisfied
11         COc1cc2ncnc(Nc3cccc(Cl)c3)c2cc1OC      Satisfied
12  N#Cc1cc(-c2ccnc(Nc3ccc(-n4cnc(-c5cccnc5)n4)cc3)n2)cc(N2CCOCC2)c1      Satisfied
13  COc1cc2c(Nc3ccc(NC(=O)c4ccccc4)cc3)ncnc2cc1OCCCN1CCOCC1      Satisfied
14  Cc1cn(-c2cc(C(=O)Nc3ccc(C)c(NC(=O)c4ccno4)c3)cc(C(F)(F)F)c2)cn1  Not satisfied
15  CCN(CCO)CCCOc1ccc2c(Nc3cc(CC(=O)Nc4cccc(F)c4)[nH]n3)ncnc2c1      Satisfied
16  CCOc1cc(N2CCC(O)CC2)ccc1Nc1ncc2c(n1)N(C)c1ccccc1C(=O)N2C  Not satisfied
